All values here come from patent US8012711B2.

System: Escherichia coli AG100, AG112 and derived fluoroquinolone-resistant mutants with ΔacrAB
Assay: MIC by broth microdilution, AcrAB-deleted strains
Assay type: cell-based
Conditions: Escherichia coli, strain 2-AG100 (2°-AG100), ΔacrAB
MIC for assorted molecules

Here is how some molecules turned out for MIC.
Ask | Requested field: MIC. Item: O=C(O)c1cn(C2CC2)c2cc(N3CCNCC3)c(F)cc2c1=O [CIP, ciprofloxacin]
Reply | 0.06 mg/L

Ask | Requested field: MIC. Item: N[C@@H]1[C@H]2CN(c3nc4c(cc3F)c(=O)c(C(=O)O)cn4-c3ccc(F)cc3F)C[C@@H]12 [TVA, trovafloxacin]
Reply | 0.06 mg/L

Could you now consider this next molecule?
Ask | Requested field: MIC. Item: C[C@@H]1CN(c2c(F)c(N)c3c(=O)c(C(=O)O)cn(C4CC4)c3c2F)C[C@H](C)N1 [SPX, sparfloxacin]
Reply | ≤ 0.015 mg/L

###

Test system: Escherichia coli K-12 AG100, its Mar mutant AG112 and derived fluoroquinolone-resistant mutants (acrAB+)
Test: MIC by broth microdilution, acrAB+ strains
Assay type: cell-based
Details: Escherichia coli, strain 4*-AG100, acrAB+; read-out: MIC
MIC for assorted compounds
Form entry: value (µg/mL) — number only.

Here is how some compounds turned out for MIC.
Ask | Requested field: MIC. Item: "O=C(N[C@H](CO)[C@H](O)c1ccc([N+](=O)[O-])cc1)C(Cl)Cl"
Reply | 64

Ask | Requested field: MIC. Item: "CN(C)[C@@H]1C(O)=C(C(N)=O)C(=O)[C@@]2(O)C(O)=C3C(=O)c4c(O)cccc4[C@@](C)(O)[C@H]3C[C@@H]12"
Reply | 8

New cases:
Ask | Requested field: MIC. Item: "O=C(O)c1cn(C2CC2)c2cc(N3CCNCC3)c(F)cc2c1=O"
Reply | 2

Ask | Requested field: MIC. Item: CC1COc2c(N3CCN(C)CC3)c(F)cc3c(=O)c(C(=O)O)cn1c23 (stereo not shown)
Reply | 4

Ask | Requested field: MIC. Item: "N[C@@H]1[C@H]2CN(c3nc4c(cc3F)c(=O)c(C(=O)O)cn4-c3ccc(F)cc3F)C[C@@H]12"
Reply | 2

Ask | Requested field: MIC. Item: "C[C@@H]1CN(c2c(F)c(N)c3c(=O)c(C(=O)O)cn(C4CC4)c3c2F)C[C@H](C)N1"
Reply | 2

Ask | Requested field: MIC. Item: "CO[C@@]1(NC(=O)Cc2cccs2)C(=O)N2C(C(=O)O)=C(COC(N)=O)CS[C@@H]21"
Reply | 32

###

Tested on: Escherichia coli AG100, AG112 and derived fluoroquinolone-resistant mutants with ΔacrAB
Assay: MIC by broth microdilution, AcrAB-deleted strains
Assay type: cell-based
Settings: Escherichia coli, strain 4*-AG100, ΔacrAB
Experimental: Susceptibility testing. […] MICs of bile salts were determined by a broth macrodilution procedure: sodium cholate and sodium deoxycholate were serially diluted twofold in LB broth and tubes inoculated at 5×10^5 CFU/ml. MICs of both antibiotics and bile salts were determined twice in independent experiments with reproducible results. […]
measure: MIC (µg/mL)
Form entry: value (µg/mL) — number only.

Here is how some molecules turned out for MIC.
Ask | Requested field: MIC. Item: "CO[C@@]1(NC(=O)Cc2cccs2)C(=O)N2C(C(=O)O)=C(COC(N)=O)CS[C@@H]21"
Reply | 1

Ask | Requested field: MIC. Item: "CN(C)[C@@H]1C(O)=C(C(N)=O)C(=O)[C@@]2(O)C(O)=C3C(=O)c4c(O)cccc4[C@@](C)(O)[C@H]3C[C@@H]12"
Reply | 1

Ask | Requested field: MIC. Item: "O=C(N[C@H](CO)[C@H](O)c1ccc([N+](=O)[O-])cc1)C(Cl)Cl"
Reply | 1

Ask | Requested field: MIC. Item: "N[C@@H]1[C@H]2CN(c3nc4c(cc3F)c(=O)c(C(=O)O)cn4-c3ccc(F)cc3F)C[C@@H]12"
Reply | 0.125

Ask | Requested field: MIC. Item: "O=C(O)c1cn(C2CC2)c2cc(N3CCNCC3)c(F)cc2c1=O"
Reply | 0.125

Could you now consider this next molecule?
Ask | Requested field: MIC. Item: CC1COc2c(N3CCN(C)CC3)c(F)cc3c(=O)c(C(=O)O)cn1c23 (stereo not shown)
Reply | 0.125
